TESTED SYSTEM: Protein kinase C gamma type (Homo sapiens)
PROTOCOL NOTES: Displacement of [3H]phorbol 12,13-dibutyrate from PKC gamma-C1B
MEASUREMENT TYPE: Ki (µM)
Field: numeric (µM). Do not append units.

GET /value?item= `CCCCCCCCc1cccc2c1CC[C@@H](CO)NC(=O)[C@H](C(C)C)N2C` &field=Ki returns 5.2

----------
TESTED SYSTEM: Protein kinase C delta type (Homo sapiens)
Sequence (Q05655 whole entry): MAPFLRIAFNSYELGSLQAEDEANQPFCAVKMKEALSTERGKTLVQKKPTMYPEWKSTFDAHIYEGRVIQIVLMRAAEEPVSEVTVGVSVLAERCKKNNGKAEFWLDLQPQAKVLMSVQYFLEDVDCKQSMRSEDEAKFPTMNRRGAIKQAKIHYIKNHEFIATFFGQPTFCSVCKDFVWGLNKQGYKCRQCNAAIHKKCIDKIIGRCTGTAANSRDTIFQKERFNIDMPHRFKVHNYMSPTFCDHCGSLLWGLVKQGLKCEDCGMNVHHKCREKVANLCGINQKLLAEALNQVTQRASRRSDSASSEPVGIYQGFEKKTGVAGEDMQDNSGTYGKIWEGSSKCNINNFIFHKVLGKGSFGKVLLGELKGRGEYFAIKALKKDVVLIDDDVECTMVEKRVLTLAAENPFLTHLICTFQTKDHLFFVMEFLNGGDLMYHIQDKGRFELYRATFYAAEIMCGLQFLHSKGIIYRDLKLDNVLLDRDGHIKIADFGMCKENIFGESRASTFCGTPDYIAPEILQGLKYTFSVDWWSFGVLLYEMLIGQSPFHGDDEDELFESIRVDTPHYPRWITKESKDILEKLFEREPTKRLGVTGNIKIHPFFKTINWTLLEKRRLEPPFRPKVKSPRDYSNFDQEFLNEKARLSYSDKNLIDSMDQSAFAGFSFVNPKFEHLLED
PROTOCOL NOTES: Displacement of [3H]phorbol 12,13-dibutyrate from PKC delta-C1B
MEASUREMENT TYPE: Ki (nM)
Your answer should be a plain number; it is taken to be in nM.

Per the record, `CCCCCCCCc1cccc2c1CC[C@@H](CO)NC(=O)[C@H](C(C)C)N2C` has Ki of 216

----------
TESTED SYSTEM: Protein kinase C epsilon type (Homo sapiens)
Sequence (Q02156 whole entry): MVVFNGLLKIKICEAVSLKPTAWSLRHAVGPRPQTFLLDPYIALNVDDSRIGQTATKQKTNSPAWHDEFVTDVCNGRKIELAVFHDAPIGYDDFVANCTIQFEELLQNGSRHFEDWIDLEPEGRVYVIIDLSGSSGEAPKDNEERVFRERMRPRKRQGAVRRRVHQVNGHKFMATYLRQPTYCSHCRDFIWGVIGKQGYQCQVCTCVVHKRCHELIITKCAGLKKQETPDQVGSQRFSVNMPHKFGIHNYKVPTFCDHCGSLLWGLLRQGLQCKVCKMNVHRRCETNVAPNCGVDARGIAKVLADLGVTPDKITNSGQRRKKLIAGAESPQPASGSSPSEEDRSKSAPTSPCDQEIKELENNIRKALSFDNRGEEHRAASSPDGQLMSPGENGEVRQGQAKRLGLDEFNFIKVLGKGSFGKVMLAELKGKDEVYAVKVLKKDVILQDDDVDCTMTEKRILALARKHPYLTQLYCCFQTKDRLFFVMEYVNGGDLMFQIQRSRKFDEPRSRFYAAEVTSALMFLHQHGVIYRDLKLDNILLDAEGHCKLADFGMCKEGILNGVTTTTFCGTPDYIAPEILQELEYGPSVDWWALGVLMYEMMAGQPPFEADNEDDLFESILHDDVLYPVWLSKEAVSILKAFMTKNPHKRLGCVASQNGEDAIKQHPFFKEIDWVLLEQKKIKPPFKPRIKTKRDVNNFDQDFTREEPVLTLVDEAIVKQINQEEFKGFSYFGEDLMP
PROTOCOL NOTES: Displacement of [3H]phorbol 12,13-dibutyrate from PKC epsilon-C1A
MEASUREMENT TYPE: Ki

The compound `CCCCCCCCc1cccc2c1CC[C@@H](CO)NC(=O)[C@H](C(C)C)N2C` , when measured on Protein kinase C epsilon type (Homo sapiens), yielded Ki of > 10 µM

----------
TESTED SYSTEM: Protein kinase C alpha type (Homo sapiens, UniProt P17252)
PROTOCOL NOTES: Displacement of [3H]phorbol 12,13-dibutyrate from PKC alpha-C1A
pKi: −log10 of the molar value.
MEASUREMENT TYPE: pKi

Summary for this molecule, `CCCCCCCCc1cccc2c1CC[C@@H](CO)NC(=O)[C@H](C(C)C)N2C` : pKi is < 5.00
